src = patent US5288709A

tested on: Acinetobacter SP CMX 669; experiment: In-vitro antimicrobial activity primary screen (agar dilution MIC); type: cell-based; conditions: Acinetobacter, SPCMX669, 24 h
Measured MIC, listed per entry for reference.
Write the answer as a number in µg/mL, unit excluded.

smiles_entry	reported
CC[C@H]1OC(=O)[C@H](C)[C@@H](O[C@H]2C[C@@](C)(OC)[C@H](N)[C@H](C)O2)[C@H](C)[C@@H](O[C@@H]2O[C@H](C)C[C@H](N(C)C)[C@H]2O)[C@](C)(O)C[C@@H](C)[C@@H]2O[C@@]1(C)C(=O)[C@H]2C	6.2
CC[C@H]1OC(=O)[C@H](C)[C@@H](O[C@H]2C[C@@](C)(OC)[C@H](N)[C@H](C)O2)[C@H](C)[C@@H](O[C@@H]2O[C@H](C)C[C@H](N(C)C)[C@H]2O)[C@](C)(O)C[C@@H](C)[C@@H]2O[C@@]1(C)[C@@H](N)[C@H]2C	1.56
CC[C@H]1OC(=O)[C@H](C)[C@@H](O[C@H]2C[C@@](C)(OC)[C@H](O)[C@H](C)O2)[C@H](C)[C@@H](O[C@@H]2O[C@H](C)C[C@H](N(C)C)[C@H]2O)[C@](C)(O)C[C@@H](C)[C@@H]2O[C@@]1(C)C(=O)[C@H]2C	0.39
CC[C@H]1OC(=O)[C@H](C)[C@@H](O[C@H]2C[C@@](C)(OC)[C@H](N=CN(C)C)[C@H](C)O2)[C@H](C)[C@@H](O[C@@H]2O[C@H](C)C[C@H](N(C)C)[C@H]2O)[C@](C)(O)C[C@@H](C)[C@@H]2O[C@@]1(C)C(=O)[C@H]2C	50
CC[C@H]1OC(=O)[C@H](C)[C@@H](O[C@H]2C[C@@](C)(OC)[C@@H](N)[C@H](C)O2)[C@H](C)[C@@H](O[C@@H]2O[C@H](C)C[C@H](N(C)C)[C@H]2O)[C@](C)(O)C[C@@H](C)[C@@H]2O[C@@]1(C)[C@@H](N)[C@H]2C	0.39

Input: Quick check: MIC of CC[C@H]1OC(=O)[C@H](C)[C@@H](O[C@H]2C[C@@](C)(OC)[C@@H](O)[C@H](C)O2)[C@H](C)[C@@H](O[C@@H]2O[C@H](C)C[C@H](N(C)C)[C@H]2O)[C@](C)(O)C[C@@H](C)[C@@H]2O[C@@]1(C)[C@@H](N)[C@H]2C ?
Output: 1.56

Input: Could you share which MIC value was measured for CC[C@H]1OC(=O)[C@H](C)[C@@H](O[C@H]2C[C@@](C)(OC)[C@@H](OC(N)=O)[C@H](C)O2)[C@H](C)[C@@H](O[C@@H]2O[C@H](C)C[C@H](N(C)C)[C@H]2O)[C@](C)(O)C[C@@H](C)[C@@H]2O[C@@]1(C)[C@@H](O)[C@H]2C ?
Output: 50

====

tested on: Staphylococcus aureus CMX 686B; assay: In-vitro antimicrobial activity primary screen (agar dilution MIC); assay type: cell-based; conditions: CMX686B, BHI agar, 20-24 h, read-out: MIC
Readings of MIC for the listed compounds
Lab note: write values as number then unit, every time.

Worked set:
compound	MIC
CC[C@H]1OC(=O)[C@H](C)[C@@H](O[C@H]2C[C@@](C)(OC)[C@@H](O)[C@H](C)O2)[C@H](C)[C@@H](O[C@@H]2O[C@H](C)C[C@H](N(C)C)[C@H]2O)[C@](C)(O)C[C@@H](C)C(=O)[C@H](C)[C@@H](O)[C@]1(C)O [Std, Erythromycin A, reference compound]	0.2 µg/mL
CC[C@H]1OC(=O)[C@H](C)[C@@H](O[C@H]2C[C@@](C)(OC)[C@@H](O)[C@H](C)O2)[C@H](C)[C@@H](O[C@@H]2O[C@H](C)C[C@H](N(C)C)[C@H]2O)[C@](C)(O)C[C@@H](C)[C@@H]2O[C@@]1(C)[C@@H](O)[C@H]2C	0.2 µg/mL

Next:
Input: Form field - read-out: MIC; system: Staphylococcus aureus CMX 686B; submitted item: CC[C@H]1OC(=O)[C@H](C)[C@@H](O[C@H]2C[C@@](C)(OC)[C@@H](OC(N)=O)[C@H](C)O2)[C@H](C)[C@@H](O[C@@H]2O[C@H](C)C[C@H](N(C)C)[C@H]2O)[C@](C)(O)C[C@@H](C)[C@@H]2O[C@@]1(C)[C@@H](O)[C@H]2C
Output: 0.39 µg/mL

====

Entries annotated with measured MIC
test system: Pseudomonas aeruginosa K799/61; experiment: In-vitro antimicrobial activity primary screen (agar dilution MIC); assay type: cell-based; conditions: Pseudomonas aeruginosa K799/61; BHI agar, 20-24 h; read-out: MIC
Only the number, expressed in µg/mL, is required.

The following compounds have reported results that may help.
compound	assayed_target	measure_unit	MIC
CC[C@H]1OC(=O)[C@H](C)[C@@H](O[C@H]2C[C@@](C)(OC)[C@@H](O)[C@H](C)O2)[C@H](C)[C@@H](O[C@@H]2O[C@H](C)C[C@H](N(C)C)[C@H]2O)[C@](C)(OC)C[C@@H](C)[C@@H]2O[C@@]1(C)[C@@H](O)[C@H]2C [Example 28A]	Pseudomonas aeruginosa K799/61	µg/mL	0.78
CC[C@H]1OC(=O)[C@H](C)[C@@H](O[C@H]2C[C@@](C)(OC)[C@@H](O)[C@H](C)O2)[C@H](C)[C@@H](O[C@@H]2O[C@H](C)C[C@H](N(C)C)[C@H]2O)[C@](C)(O)C[C@@H](C)[C@@H]2O[C@@]1(C)[C@@H](N)[C@H]2C [Example 19]	Pseudomonas aeruginosa K799/61	µg/mL	0.78
CC[C@H]1OC(=O)[C@H](C)[C@@H](O[C@H]2C[C@@](C)(OC)[C@H](N)[C@H](C)O2)[C@H](C)[C@@H](O[C@@H]2O[C@H](C)C[C@H](N(C)C)[C@H]2O)[C@](C)(O)C[C@@H](C)[C@@H]2O[C@@]1(C)[C@@H](N)[C@H]2C [Example 20]	Pseudomonas aeruginosa K799/61	µg/mL	0.78

Input: # query: MIC of entry CC[C@H]1OC(=O)[C@H](C)[C@@H](O[C@H]2C[C@@](C)(OC)[C@H](NC(C)=O)[C@H](C)O2)[C@H](C)[C@@H](O[C@@H]2O[C@H](C)C[C@H](N(C)C)[C@H]2O)[C@](C)(O)C[C@@H](C)[C@@H]2O[C@@]1(C)C(=O)[C@H]2C [Example 10]
Output: 1.56

====

experiment: Pharmacokinetic evaluation in dogs after a 10 mg/kg dose; details: dog, plasma, po, % ABS (percent absorbance), oral 10 mg/kg, HPLC (parent drug), from AUC (absolute bioavailability)
The entries below are paired with their reported bioavailability.
Write the value in % as a bare number.

smiles_entry	bioavailability (%)
CC[C@H]1OC(=O)[C@H](C)[C@@H](O[C@H]2C[C@@](C)(OC)[C@@H](O)[C@H](C)O2)[C@H](C)[C@@H](O[C@@H]2O[C@H](C)C[C@H](N(C)C)[C@H]2O)[C@](C)(O)C[C@@H](C)[C@@H]2O[C@@]1(C)C(=O)[C@H]2C	81
CC[C@H]1OC(=O)[C@H](C)[C@@H](O[C@H]2C[C@@](C)(OC)[C@@H](O)[C@H](C)O2)[C@H](C)[C@@H](O[C@@H]2O[C@H](C)C[C@H](N(C)C)[C@H]2O)[C@](C)(O)C[C@@H](C)[C@@H]2O[C@@]1(C)[C@@H](O)[C@H]2C	69

Turning now to a further compound:
Input: Endpoint output: bioavailability of CC[C@H]1OC(=O)[C@H](C)[C@@H](O[C@H]2C[C@@](C)(OC)[C@H](N)[C@H](C)O2)[C@H](C)[C@@H](O[C@@H]2O[C@H](C)C[C@H](N(C)C)[C@H]2O)[C@](C)(O)C[C@@H](C)[C@@H]2O[C@@]1(C)[C@@H](O)[C@H]2C . Value?
Output: 68

====

assay: Pharmacokinetic evaluation in dogs after a 10 mg/kg dose; conditions: dog, plasma, po, % ABS (percent absorbance), oral 10 mg/kg, microbiological assay, from AUC (absolute bioavailability)
// reported bioavailability per item
Only the number, expressed in %, is required.

Consider the following illustrative entries.
molecule	bioavailability (%)
CC[C@H]1OC(=O)[C@H](C)[C@@H](O[C@H]2C[C@@](C)(OC)[C@@H](O)[C@H](C)O2)[C@H](C)[C@@H](O[C@@H]2O[C@H](C)C[C@H](N(C)C)[C@H]2O)[C@](C)(O)C[C@@H](C)[C@@H]2O[C@@]1(C)C(=O)[C@H]2C [Example 5]	76
CC[C@H]1OC(=O)[C@H](C)[C@@H](O[C@H]2C[C@@](C)(OC)[C@@H](O)[C@H](C)O2)[C@H](C)[C@@H](O[C@@H]2O[C@H](C)C[C@H](N(C)C)[C@H]2O)[C@](C)(O)C[C@@H](C)[C@@H]2O[C@@]1(C)[C@@H](N)[C@H]2C [Example 19]	67
CC[C@H]1OC(=O)[C@H](C)[C@@H](O[C@H]2C[C@@](C)(OC)[C@H](N)[C@H](C)O2)[C@H](C)[C@@H](O[C@@H]2O[C@H](C)C[C@H](N(C)C)[C@H]2O)[C@](C)(O)C[C@@H](C)[C@@H]2O[C@@]1(C)[C@@H](O)[C@H]2C [Example 13]	58
CC[C@H]1OC(=O)[C@H](C)[C@@H](O[C@H]2C[C@@](C)(OC)[C@@H](N)[C@H](C)O2)[C@H](C)[C@@H](O[C@@H]2O[C@H](C)C[C@H](N(C)C)[C@H]2O)[C@](C)(O)C[C@@H](C)[C@@H]2O[C@@]1(C)[C@@H](N)[C@H]2C [Example 22]	57

Input: For the molecule CC[C@H]1OC(=O)[C@H](C)[C@@H](O[C@H]2C[C@@](C)(OC)[C@@H](O)[C@H](C)O2)[C@H](C)[C@@H](O[C@@H]2O[C@H](C)C[C@H](N(C)C)[C@H]2O)[C@](C)(O)C[C@@H](C)C(=O)[C@H](C)[C@@H](O)[C@]1(C)O [Std, Erythromycin A, reference compound] , what bioavailability is on record?
Output: 72

Input: Give the measured bioavailability of CC[C@H]1OC(=O)[C@H](C)[C@@H](O[C@H]2C[C@@](C)(OC)[C@@H](O)[C@H](C)O2)[C@H](C)[C@@H](O[C@@H]2O[C@H](C)C[C@H](N(C)C)[C@H]2O)[C@](C)(O)C[C@@H](C)[C@@H]2O[C@@]1(C)[C@@H](O)[C@H]2C [Example 4] .
Output: 75
